- targetSystem: PPARg:RXRa (Homo sapiens, UniProt P37231;P19793 full;full)
- Sequence (P37231 29-505, chain 1 of 2): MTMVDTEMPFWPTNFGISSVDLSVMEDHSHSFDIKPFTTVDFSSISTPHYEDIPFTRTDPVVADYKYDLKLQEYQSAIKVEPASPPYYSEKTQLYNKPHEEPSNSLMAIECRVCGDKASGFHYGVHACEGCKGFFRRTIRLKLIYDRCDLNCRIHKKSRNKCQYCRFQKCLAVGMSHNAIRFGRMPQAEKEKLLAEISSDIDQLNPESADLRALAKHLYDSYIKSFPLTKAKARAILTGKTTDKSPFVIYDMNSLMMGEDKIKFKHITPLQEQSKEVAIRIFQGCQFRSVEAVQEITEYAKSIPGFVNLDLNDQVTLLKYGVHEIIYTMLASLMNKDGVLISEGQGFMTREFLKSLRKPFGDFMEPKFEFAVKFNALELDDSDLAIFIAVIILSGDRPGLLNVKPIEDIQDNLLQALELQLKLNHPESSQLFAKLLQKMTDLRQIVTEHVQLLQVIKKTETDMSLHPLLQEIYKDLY
- Sequence (P19793 whole entry, chain 2 of 2): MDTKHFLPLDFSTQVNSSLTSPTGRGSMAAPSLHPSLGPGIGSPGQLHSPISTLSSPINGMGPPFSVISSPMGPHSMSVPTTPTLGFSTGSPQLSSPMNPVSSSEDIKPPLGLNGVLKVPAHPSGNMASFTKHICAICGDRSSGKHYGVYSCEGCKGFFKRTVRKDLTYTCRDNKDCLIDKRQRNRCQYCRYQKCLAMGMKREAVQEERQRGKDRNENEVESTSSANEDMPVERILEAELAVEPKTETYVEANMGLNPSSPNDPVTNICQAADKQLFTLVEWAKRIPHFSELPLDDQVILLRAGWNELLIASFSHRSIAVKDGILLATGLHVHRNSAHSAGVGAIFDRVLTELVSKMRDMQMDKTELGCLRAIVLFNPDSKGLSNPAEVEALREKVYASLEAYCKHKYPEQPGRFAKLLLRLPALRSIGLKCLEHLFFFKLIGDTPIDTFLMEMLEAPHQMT
- experimentSummary: no ligand; PBM; 180 nM : 90 nM RXRa; PBS pH 7.4, 2% milk, 0.02% Triton X-100, 1 mM DTT, BSA, 0.4 mg/ml salmon testes DNA
- measurementConditions: tags: His kept;His cleaved; copies: 1;1; label: surface-attached array probe
assayMetric: binding signal

Form: binder = NRC3_wobSeed119_DR4_A9G_o1 (dsDNA) DNA 1: GCGGAACGGGGGCATTCGAGTTGATAGCATGGCGATGCGATTGACAGCGTAGAATGAAGG DNA 2: CCTTCATTCTACGCTGTCAATCGCATCGCCATGCTATCAACTCGAATGCCCCCGTTCCGC ; binding signal = 3 PBM z-score against 500 random probes
